Assay: Solid-state stability test, one week, HPLC purity
Assay type: physicochemical
Settings: Light illumination 4500 lux, open container, 1 week
assay readout: HPLC purity 1 week (Area %)

CC1=Nc2c(F)cc(-c3nc(Nc4ccc(C5CCN(C)CC5)cn4)ncc3F)cc2C12CCCC2.O=C(O)/C=C/C(=O)O [Fumarate crystal form A] = 99.89
CC1=Nc2c(F)cc(-c3nc(Nc4ccc(C5CCN(C)CC5)cn4)ncc3F)cc2C12CCCC2 [Free base crystal form A, reference compound] = 99.28
CC1=Nc2c(F)cc(-c3nc(Nc4ccc(C5CCN(C)CC5)cn4)ncc3F)cc2C12CCCC2.O=C(O)/C=C/C(=O)O [Fumarate crystal form C] = 99.46
CC1=Nc2c(F)cc(-c3nc(Nc4ccc(C5CCN(C)CC5)cn4)ncc3F)cc2C12CCCC2 [Adipate crystal form A] = 99.88
CC1=Nc2c(F)cc(-c3nc(Nc4ccc(C5CCN(C)CC5)cn4)ncc3F)cc2C12CCCC2.CS(=O)(=O)O [Methanesulfonate crystal form A, reference compound] = 98.28
CC1=Nc2c(F)cc(-c3nc(Nc4ccc(C5CCN(C)CC5)cn4)ncc3F)cc2C12CCCC2.O=C(O)CCC(=O)O [Succinate crystal form A] = 99.90
CC1=Nc2c(F)cc(-c3nc(Nc4ccc(C5CCN(C)CC5)cn4)ncc3F)cc2C12CCCC2.O=C(O)/C=C\C(=O)O [Maleate crystal form B] = 99.83
